All values here come from patent US20260258115A1.

Items are presented alongside their recorded Neutralization IC50 (RSV subtype A).
# TARGET OF ASSAY: Respiratory Syncytial Virus fusion glycoprotein (RSV F) on RSV-A2 virus (Respiratory Syncytial Virus subtype A (RSV-A2))
# ASSAY: cell-based or functional assay

Consider the worked cases shown below.
binder="ADI-41176 (antibody, V domains shown) VH: EVQLVESGPGLVKPSETLSLTCTVSGGSIGNDYYYWGWIRQPPGKGLEWIGNISYSGSTYYNPSLKSRVTISVGTSKNQFSLKLTSVSAADTAVYHCVGRTFWRDCSSTSCYEYYFDYWGQGTLVTVSS VL: ETTLTQSPTSLSASVGDRVTITCRASQGISNYLAWYQQKPGKVPKVLIYAASTLQSGVSSRFSGSGSGTGFTLTISNLQPEDVATYYCQNYNSAPWTFGQGTKVEIK" result="> 25 µg/mL"
binder="ADI-41159 (antibody, V domains shown) VH: EVQLVESGAEVKKPGESLKISCKGSGYSFTTYWIGWVRQMPGKGLEWMGIMYPGDSQTRYSPSFQGQVTISADKSISTAYLQWSSLKASDTAMYYCARGGYCSGGSCYRGLDYWGQGTLVTVSS VL: EIVMTQSPSSLSASVGDRVTITCRASQSISSFLNWYQQKPGKAPNLLIYAASSLLSGVPSRFSGSGSGTDFTLTISSLQPEDFATYYCQQSHSTPQTFGQGTKLEIK" result="> 25 µg/mL"
binder="ADI-41184 (antibody, V domains shown) VH: EVQLLETGGGLVQPGGSLRLSCAASGFTFSSYDMNWVRQAPGKGLEWVSTISGSGGPTYYAGSVKGRFTISRDNSKNTLYLQMNSLRADDTAVYYCAKAQLYDTSGYYLYYFDYWGQGTLVTVSS VL: DIRMTQSPSSLSASVGDRVTITCRASQRITSYLNWYQQKPGKAPKLLIYAASSLQSGVPSRFSGSGSGTDFTLTISSLQPEDFATYFCQQSYSTSFTFGPGTKVDIK" result="> 25 µg/mL"
binder="ADI-36680 (antibody, V domains shown) VH: QVTLKESGAELRKPGESLKISCKASGYRFTNYWIGWVRQMPGKGLEWMGVIYPGDSDTKYSPSFQGQVTMSADKSINTAYLQWSSLKASDTAIYYCVSLFGDYDYGALDYWGQGTLVTVSS VL: ETTLTQSPATLSMSPGERATLSCRASQSVGRNLAWYQQKPGQAPRLLIYGASIRATGILARFSGSGSGTEYTLTISSLQPEDFAVYYCQQYHDWPSFTFGPGTKVDIK" result="0.01 µg/mL"

Here is another binder to look at.
For the binder ADI-41214 (antibody, V domains shown) VH: EVQLVESGGGLVQPGGSLRLSCAASGFTFSSYWMSWVRQAPGKGLEWVATIKQDGSEKYSVDSVKGRFTISRDNPKKSLYLQMNSLRAEDTAVYYCARDYRVEYYHSSDKLKRYYYYGMDVWGQGTTVTVSS VL: DIRVTQSPSSLSASVGDRVTITCRASQSISTYLNWYQQKPGKAPKFLIYAASSLESGVPSRFSGSGSGTDFSLTISSLQPEDFATYYCQQSYSIPITFGQGTRLEIK , what Neutralization IC50 (RSV subtype A) is on record? > 25 µg/mL
